Provenance of the data: PubChem BioAssay AID1159580

Quick reference for normalized growth among some compounds
EXPERIMENT: chemical genetic growth profiling, strain panel (AID 1159580);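 further: tested at 20 µM; growth read once vehicle control cultures reached saturation at 30 °C; 1 = growth at the plate median or of vehicle wells; lower values mean less growth of the strain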
RECORDED_CONDITIONS: S. cerevisiae deletion strains, growth OD, locus YMR263W, strain SAP30, active compounds read low
Among all 5,500 compounds or so, about 2,000 (36%) were called active. Roughly 18% stayed inconclusive and do not appear here. This is one part of the list.

Example compounds with recorded normalized growth:
CCC1(CC)C(=O)C=CNC1=O | 0.995 (inactive)
Cc1nn(-c2ccccc2)nc1C(=O)NNC(=S)Nc1ccc(Cl)cc1 | 1.01 (inactive)
NS(=O)(=O)c1ccc(-n2ncc3ccccc3c2=O)cc1 | 1.01 (inactive)

# ---- query compound ----
Record COc1ccc2c(c1OC)OC[C@@H](c1ccc(OC)c(OC)c1OC)C2 , field normalized growth: 0.996 (inactive)
